tested on: NCI/ADR-RES; assay: NCI tumour cell line growth inhibition, 48 h
Activity calls are given as the source filed them. Rule as the data show it: active = GI50 up to about 1.1 µM and inactive = higher.
Property: GI50; scope: individual compounds

Exercise: Indicate the recorded GI50 value for this compound: O=C(O)c1cc2c(cc1CC(Cc1ccc3c(c1)CCCC3)C(=O)O)CCCC2 (stereo unspecified)
Solution: 32.8 µM (inactive)

Exercise: Please report GI50 for the following compound: `CCOC(=O)CC(=O)Nc1cccc2nc[nH]c12`
Solution: > 100 µM (inactive)

Exercise: Please supply the value of reported GI50 for the item `O=C(/C=C/C(=O)N1CCCC1)N1CCCC1`
Solution: > 100 µM (inactive)

---

Consider the following compounds and their measured GI50 readings.
test system: A498; assay: NCI tumour cell line growth inhibition, 48 h
Counter-ions that a name gives are not always drawn. The source made the active and inactive calls. Rule as the data show it: active = GI50 up to about 1.1 µM and inactive = higher.

// worked examples, GI50 included
| compound | result |
| --- | --- |
| CCC1=NC(N/N=C/c2ccccc2O)=N/C1=C\c1ccccc1O | 26.7 µM (inactive) |
| O=C1CC(c2ccc(O)cc2)C2(O1)C(=O)OC(C(O)CO)C2O (configuration not stated) | > 100 µM (inactive) |
| CC(C)CCC1(CCN)C(=O)NC(=O)NC1=O | > 100 µM (inactive) |

Exercise: Answer with the recorded GI50 of `Clc1ccccc1NN(Cc1ccccn1)c1ccccc1Cl` only.
Solution: 20.5 µM (inactive)

Exercise: Give GI50 for `Cn1cnc([N+](=O)[O-])c1Sc1nncc2[nH]cnc12`
Solution: > 100 µM (inactive)

Exercise: State, in one line, measured GI50 of C[C@@H](CC(=O)O)OC1OC(COC(=O)C(C)(C)C)C(OC(=O)C(C)(C)C)C(OC(=O)C(C)(C)C)C1OC(=O)C(C)(C)C (some centres not stated)
Solution: > 100 µM (inactive)

Exercise: Read off the recorded GI50 for `COc1ccc(C(=O)O[C@@H]2CCN3CC[C@H](C)[C@H]23)cc1`
Solution: > 100 µM (inactive)

Exercise: # return recorded GI50 for input OC(CNc1ccccn1)c1ccccc1 (configuration not stated) [PHENYRAMIDOL HYDROCHLORIDE]
Solution: > 100 µM (inactive)

Exercise: Indicate the recorded GI50 value for this compound: `C\C(=N/N=C1/C(=C\N(C)C)C(=O)NC(=O)N1C)c1ccc(Cl)cc1`
Solution: > 100 µM (inactive)
